- Test system: MYCN
- method notes: 3' UTR reporter interaction score (median-centred robust z-score of log2 firefly/Renilla activity); higher = less repression of the 3' UTR reporter
- condition: HEK293T; 48 h
Exercise: for every item that follows, state its recorded 3' UTR reporter interaction score.

Sample records with 3' UTR reporter interaction score:
1. UAGUAGACCGUAUAGCGUACG ... 0.359
2. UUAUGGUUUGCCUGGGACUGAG ... -0.255
3. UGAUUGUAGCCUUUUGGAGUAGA ... 0.938
4. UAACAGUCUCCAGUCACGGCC ... 0.167
5. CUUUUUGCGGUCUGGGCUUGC ... 0.522
6. AAAGUGCUUCCUUUUAGAGGG ... -0.401

Please report 3' UTR reporter interaction score for every entry that follows.
1. UGGAAGACUAGUGAUUUUGUUG
2. AGUGGGGAACCCUUCCAUGAGGA
3. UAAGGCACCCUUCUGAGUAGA
4. UAUUGCACAUUACUAAGUUGC
5. GAAGGCGCUUCCCUUUAGAGC
6. AGCUACAUUGUCUGCUGGGUUUC
7. GUCAACACUUGCUGGUUUCCUC
8. UUACAGUUGUUCAACCAGUUACU

Reply:
1. 0.44
2. 0.0621
3. -0.435
4. 1.19
5. 0.218
6. 0.451
7. -0.83
8. -1.85

3' UTR reporter interaction score recorded for this sequence, CUCUAGAGGGAAGCACUUUCUCU , is -0.181

Every entry's value here was drawn from the supplement of paper PMC5844555.
